test system: HUVEC; test: Antiproliferative activity against human HUVEC cells after 48 hrs by MTT assay; assay type: functional, cell-based
Reported metric: IC50 (µM)
One number for each entry, in µM.

>  <Structure smiles>
CNC(=O)c1cc(Oc2ccc(NC(=O)Nc3ccc(Cl)c(C(F)(F)F)c3)cc2)ccn1

>  <Reported metric>
IC50

>  <Recorded number>
6.42

$$$$
>  <Structure smiles>
O=C(Nc1cc(Sc2ncn[nH]2)c(O)c2ccccc12)c1ccccc1[N+](=O)[O-]

>  <Reported metric>
IC50

>  <Recorded number>
5.34

$$$$

Turning to the following compound.
Find the recorded IC50 belonging to O=C(Nc1cc(Sc2ncnc3nc[nH]c23)c(O)c2ccccc12)c1ccc(Cl)cc1 and report it.
7.53
